Target: Corticotropin-releasing factor receptor 2/Corticotropin-releasing factor-binding protein (Homo sapiens, UniProt P24387+Q13324)
Sequence (Q13324 whole entry): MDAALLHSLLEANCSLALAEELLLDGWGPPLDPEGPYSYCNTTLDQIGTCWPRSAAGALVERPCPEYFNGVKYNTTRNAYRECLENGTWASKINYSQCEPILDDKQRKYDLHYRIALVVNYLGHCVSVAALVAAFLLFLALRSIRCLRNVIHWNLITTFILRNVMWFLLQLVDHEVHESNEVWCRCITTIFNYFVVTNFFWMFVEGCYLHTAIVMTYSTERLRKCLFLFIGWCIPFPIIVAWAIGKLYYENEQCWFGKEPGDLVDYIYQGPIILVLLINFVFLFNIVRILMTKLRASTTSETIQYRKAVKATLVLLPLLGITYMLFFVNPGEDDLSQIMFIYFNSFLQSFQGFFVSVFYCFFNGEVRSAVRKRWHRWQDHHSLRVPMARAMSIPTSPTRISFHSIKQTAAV
Sequence (P24387 whole entry): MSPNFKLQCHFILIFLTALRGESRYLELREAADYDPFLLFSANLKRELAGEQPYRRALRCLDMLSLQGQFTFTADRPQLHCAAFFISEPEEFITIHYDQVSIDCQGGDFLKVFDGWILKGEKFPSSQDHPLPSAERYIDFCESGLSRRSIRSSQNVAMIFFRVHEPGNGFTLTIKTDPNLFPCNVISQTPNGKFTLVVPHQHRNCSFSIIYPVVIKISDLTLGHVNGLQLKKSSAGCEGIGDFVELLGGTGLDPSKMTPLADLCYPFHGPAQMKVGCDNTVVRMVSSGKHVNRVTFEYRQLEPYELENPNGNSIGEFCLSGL
Experiment: Dose Response confirmation of uHTS hits for small molecule antagonists of the CRF-binding protein and CRF-R2 receptor complex.
Assay type: functional
Settings: read-out: IC50_Mean
Calls of active or inactive are those of the source.
Log the outcome using a class from active, inactive

> print(dat)
                                    molecule     label
 1  C[C@H](NC(=O)[C@@H]1Cc2ccccc2CN1)C(=O)NC1CCCCC1  inactive
 2  Cc1ccccc1NS(=O)(=O)c1ccc(C(=O)N(C)CC(=O)Nc2ccccc2Br)cc1  inactive
 3  Cc1ccc(C)c(C(C)NC(=O)c2ccccc2Br)c1 (stereo unspecified)  inactive
 4           CNc1nc(NC)nc(NNC(=O)c2ccccc2)n1  inactive
 5      O=C(c1ccc2snnc2c1)N1CCN(c2ccccn2)CC1  inactive
 6  CCn1c(C)nc2cc(C(=O)NN=Cc3ccc([N+](=O)[O-])cc3)ccc21  inactive
 7  Cc1ccccc1COc1ccc(C(=O)C2=C(O)C(=O)N(CCCn3ccnc3)C2c2ccco2)cc1 (stereo unspecified)  inactive
 8            Cc1cs/c(=N\c2ccccc2)n1Cc1ccco1    active
 9  CC1CCN(S(=O)(=O)c2nnc(NC(=O)c3cccc(Cl)c3)s2)CC1    active
10  COc1ccc(/C=C2/CCC(CN3CCOCC3)C2=O)cc1 (stereo unspecified)  inactive

Continue with the molecule presented below.
Dear colleague, could you share the recorded outcome for S=C(NCCc1ccccc1)N1CCC2CC1c1c(Cl)cccc12 (stereo unspecified) when you have a moment?
active

###

Kindly supply the reported CC50 values for the records listed here.
Experiment: HEp-2 cell cytotoxicity, dose response, cytotoxicity control for RSV inhibitor project, HTS (AID 2410)
Format: functional
Conditions: human respiratory syncytial virus
Active and inactive are the calls of the source.

Example entries and their recorded answers appear below.
> print(dat)
                                   compound            result
1  Cc1ccccc1C1c2[nH]c3ccccc3c2CCN1C(=O)c1ccc(=O)n(C)n1 (centres undefined)  20.4 µM (active)
2  Cc1c(OC(=O)CNC(=O)OC(C)(C)C)ccc2c3c(c(=O)oc12)CCC3  36.9 µM (active)
3  CCOC(=O)c1cccc(Nc2nc(-c3cccnc3)nc3ccccc23)c1    14 µM (active)

# input for lookup
What value of CC50 has been recorded for this entry: `Nc1ccc(Br)c[n+]1Cc1cccc2cccnc12`
> 50 µM (active)

###

Biological target: Sentrin-specific protease 6 (Homo sapiens, UniProt Q9GZR1);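 also: Luminescence-based dose-response confirmatory assay of SENP6 inhibition, following up an ultra-high-throughput screen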
Sequence (Q9GZR1 whole entry): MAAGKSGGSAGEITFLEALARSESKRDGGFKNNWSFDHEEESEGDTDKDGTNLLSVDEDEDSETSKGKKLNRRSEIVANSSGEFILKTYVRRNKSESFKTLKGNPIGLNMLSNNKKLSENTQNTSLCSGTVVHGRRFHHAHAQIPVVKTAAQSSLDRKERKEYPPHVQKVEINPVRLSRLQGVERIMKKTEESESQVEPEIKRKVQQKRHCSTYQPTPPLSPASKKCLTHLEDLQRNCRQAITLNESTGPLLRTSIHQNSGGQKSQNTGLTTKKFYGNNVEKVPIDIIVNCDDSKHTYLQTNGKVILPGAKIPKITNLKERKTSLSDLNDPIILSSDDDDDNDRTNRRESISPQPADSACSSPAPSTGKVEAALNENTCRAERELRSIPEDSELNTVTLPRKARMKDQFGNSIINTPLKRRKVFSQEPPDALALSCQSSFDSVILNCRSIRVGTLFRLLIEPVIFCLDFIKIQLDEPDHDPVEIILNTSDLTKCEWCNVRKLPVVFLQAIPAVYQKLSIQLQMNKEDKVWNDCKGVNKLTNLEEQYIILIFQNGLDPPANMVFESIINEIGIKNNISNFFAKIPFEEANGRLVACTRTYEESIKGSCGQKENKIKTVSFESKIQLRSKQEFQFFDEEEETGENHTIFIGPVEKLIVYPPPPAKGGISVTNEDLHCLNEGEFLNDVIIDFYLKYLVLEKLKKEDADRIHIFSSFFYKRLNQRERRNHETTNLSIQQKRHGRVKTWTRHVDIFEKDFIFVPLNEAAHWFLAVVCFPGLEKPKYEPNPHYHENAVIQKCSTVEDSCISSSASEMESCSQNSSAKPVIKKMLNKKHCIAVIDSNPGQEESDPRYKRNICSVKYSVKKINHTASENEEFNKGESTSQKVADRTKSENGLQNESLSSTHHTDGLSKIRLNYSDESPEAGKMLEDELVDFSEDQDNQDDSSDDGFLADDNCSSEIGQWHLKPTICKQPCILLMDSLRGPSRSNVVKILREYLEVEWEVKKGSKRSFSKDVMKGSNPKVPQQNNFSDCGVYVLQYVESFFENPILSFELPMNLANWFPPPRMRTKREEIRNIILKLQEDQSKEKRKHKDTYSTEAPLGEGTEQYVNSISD
Type: functional
Activity calls are given as the source filed them.
Log the outcome using a class from active, inactive

Check out these entries, answers already filled in.
> print(dat)
                                chem.smiles                           measured.target     label
1  CS(=O)(=O)Nc1ccc(C(=O)Nc2ccc3ccccc3c2)cc1  Sentrin-specific protease 6 (Homo sapiens, UniProt Q9GZR1)  inactive
2           O=c1c2cc(-c3ccccc3)sc2nc2n1CCC2  Sentrin-specific protease 6 (Homo sapiens, UniProt Q9GZR1)    active
3          Cc1ccc(C(=O)c2sc3nsc(C)c3c2N)cc1  Sentrin-specific protease 6 (Homo sapiens, UniProt Q9GZR1)  inactive
4          C=COC(=O)CSc1nc(-c2cccs2)ccc1C#N  Sentrin-specific protease 6 (Homo sapiens, UniProt Q9GZR1)    active

Then this molecule:
What did the test return for `O=C(Nc1cccc(Cl)c1)N1CCc2ccccc2C1` ?
active
